Target Of Assay: T1, human native VWF (human, UniProt P04275 764-2813)
T1 construct: Multimeric glycoprotein; also called native VWF protein; native VWF (305 kDa)
Method Description: SPR, Biacore 8K, antibody captured on Protein A, native VWF as analyte (4.4-50 nM), single-cycle kinetics, 1:1 fit; replicate 2
Experimental Readout: Kd (pM)
Field: numeric (pM). Do not append units.

Below: 3 binders and their reported Kd.
• 3-H9 (antibody, human IgG1, V domains shown, Rabbit-derived variable domains expressed as human IgG1; also called clone 3-H9; antibody 3-H9) VH: QSLEESGGRLVTPGTPLTLTCSVSGFSLSNYDMSWVRQAPGKGLEWIGSIHAIGITYYANWAEGRFTISKTSTTVDLKMTSLTTEDTATYFCARGLVDLNMWGPGTLVTVSS VL: AIKMTQTPSSVSVAVGGTVTINCQSSQSVYSNNLLSWYQQKPGQPPKLLIYDASTLESGVPSRFKGSGSGTQFTLTISGVQCEDAATYYCQGSYYSSGWYNTFGGGTEVVVE = 84
• 1-D5 (antibody, human IgG1, V domains shown, Rabbit-derived variable domains expressed as human IgG1; also called clone 1-D5; antibody 1-D5) VH: QQQLVESGGRLVTPGTPLTLTCAVSGFSLNNYIMGWVRQAPGKGLEYIGIISTGGSTYYASWAKGRFTISRTSTTMDLKMTSLTTEDTATYFCARGGSSAGAGFNIWGPGTLVTVSS VL: DIVMTQTPSSVSAAVGDTVTIQCQASQSINSGLAWYQQKPGQPPKRLIYKASTLASGVPSRFRGSGSGTDFTLTISDLECADAATYYCQSYHYISANGATFGGGTEVVVE = 38.1
• 1-A2 (antibody, human IgG1, V domains shown, Rabbit-derived variable domains cloned into a human IgG1 expression vector and expressed as monoclonal antibody; also called clone 1-A2; antibody 1-A2) VH: QSVEESGGRLVPPGTPLTLTCTVSGIDLTSNAMNWVRQAPGKGLEWIGGIYGHDTSYYAAWAKGRFTISRTSTTVDLKMTRPTTDDTATYFCARGFIYFDIWGTGTLVTISS VL: AIEMTQTPPSLSASVGETVRIRCLASEDIYSGISWYQQKPGKPPTLLIYGASNLESGVPPRFSGSGSGTDYTLTIGGVQAEDAATYYCLGGHSHSTTDLTFGAGTKVEIK = 527

What the record says about 1-G5 (antibody, human IgG1, V domains shown, Rabbit-derived variable domains expressed as human IgG1; also called clone 1-G5) VH: QSLEESGGRLVTPGTPLTLTCSVSGFSLSSYDMTWVRQAPGKGLEWIGSIHATGITFYANWAKGRFTTSKTSTTVDLKMTSLTTEDTATYFCARGLVDLNMWGPGTLVTVSS VL: DPVMTQTASSVSAAVGGTVTINCQASQSVYNNNYLSWYQQKPGQPPKLLIYDASTLASGVPSRFSGNGSGTQFTLTISGVQCDDAATYYCQGSYYSGGWDTAFGGGTKVVVK : Kd is 79

What the record says about 4-H3 (antibody, human IgG1, V domains shown, Rabbit-derived variable domains expressed as human IgG1; also called clone 4-H3) VH: QSLEESGGRLVPPGTPLTLTCTVSGIDLTSNAMNWVRQAPGKGLEWIGGIYGHDTSYYAAWAKGRFTISRTSTTVDLKMTRPTTDDTATYFCARGFIYFDIWGTGTLVTISS VL: AYDMTQTPPSLSASVGETVRIRCLASEDIASGISWYQQKPGKPPTLLIYGASNLESGVPPRFSGSGSGTDYTLTIGGVQAEDAATYYCLGGYSFSSNGLTFGAGTKVEIK : Kd is 154
